Reported residual activity values for a set of compounds
test_target: High affinity nerve growth factor receptor (Homo sapiens)
condition_context: at 10 µM
Write the value in % as a bare number.

compound: O=C(Nc1cccc(Nc2cc(Nc3cccc(C(F)(F)F)c3)ncn2)c1)C1CC1
test_target: High affinity nerve growth factor receptor (Homo sapiens)
unit_text: %
residual activity: 9

Query: Consider the compound `NC(=O)c1ccc2[nH]c(-c3ccc(Oc4ccc(Cl)cc4)cc3)nc2c1` and give its measured residual activity.
Reply: 54

Query: Look up residual activity: `Cc1ccc(NC2=CC(=O)c3sc(C)nc3C2=O)cc1`
Reply: 88

Query: Could you tell me which residual activity is on file for `CCC(=O)Nc1ccc2ncnc(Nc3cccc(Br)c3)c2c1` ?
Reply: 96

Query: residual activity lookup needed for `COc1ccc(C(=O)Nc2sc3c(c2C(N)=O)CCCC3)cc1OC` , thanks.
Reply: 76

Query: So what does the record say about residual activity for `CC(C)n1cnc2/c(=N/c3cccc(Cl)c3)nc(NCCO)[nH]c21` ?
Reply: 1

Query: Recorded residual activity for `O=C1c2ccccc2-[n+]2ccc3c([nH]c4ccccc43)c21` , please?
Reply: 47

Query: Need residual activity, item `O=C1NC(=O)/C(=C/c2ccc3c(c2)OC(F)(F)O3)S1`
Reply: 60

Query: I would be grateful if you could share the reported residual activity for O=C1Nc2ccccc2/C1=C1/Nc2ccccc2/C1=N\OCCC(O)CO (stereo unspecified) .
Reply: 0

Query: Consider the compound shown here: `O=C1Nc2ccc(Br)cc2/C1=C\c1cc2c([nH]1)CCCC2` What is its recorded residual activity?
Reply: 20

Query: Bench note: what residual activity did `N#Cc1cnc2cnc(NCc3cccnc3)cc2c1Nc1ccc(F)c(Cl)c1` show?
Reply: 88

---

test_target: Tyrosine-protein kinase Fes/Fps (Homo sapiens)
condition_context: at 10 µM
quantity_kind: residual activity (%)
Answer with a number only, understood to be in %.

molecular_string: N#CC(C#N)=C(N)/C(C#N)=C/c1ccc(O)cc1
residual activity (%): 91

molecular_string: CC#CC(=O)Nc1cc2c(Nc3ccc(F)c(Cl)c3)ncnc2cn1
residual activity (%): 81

Query: I would be grateful if you could share the reported residual activity for `CC(C)n1cnc2/c(=N/c3cccc(Cl)c3)nc(NCCO)[nH]c21` .
Reply: 12

Query: Which residual activity reading was recorded for the compound `O=C(O)c1ccc2c3c1cccc3c(=O)n1c3ccccc3nc21` ?
Reply: 71

Query: Quick check: residual activity of `CC(C)n1cnc2c(NCc3ccccc3)nc(NCCCO)nc21` ?
Reply: 51

---

Listed below: residual activity values for each entry.
test_target: SRSF protein kinase 2 (Homo sapiens)
condition_context: at 1 µM
Give just the number in %; leave the unit off.

molecular_string: CCN(CC)CCCCN1c2ccccc2Oc2ccc(Cl)cc21
test_target: SRSF protein kinase 2 (Homo sapiens)
quantity_kind: residual activity
unit_text: %
observed: 104

Query: Give its residual activity value. Item: `N#C/C(=C(\N)Sc1ccc(N)cc1)c1ccccc1C(F)(F)F`
Reply: 108

Query: Record request: residual activity value, item `C[C@@H](N)[C@H]1CC[C@H](C(=O)Nc2ccncc2)CC1`
Reply: 103

---

List of residual activity values.
test_target: Tyrosine-protein kinase Fgr (Homo sapiens)
condition_context: at 1 µM
Answer in %, number only, no unit symbol.

molecular_string: Oc1ccc(-c2nc(-c3ccc(F)cc3)c(-c3ccncc3)[nH]2)cc1
residual activity / %: 93
--
molecular_string: CCC(=O)Nc1ccc2ncnc(Nc3cccc(Br)c3)c2c1
residual activity / %: 102
--
molecular_string: Ic1cccc(CSc2nnc(-c3ccncc3)o2)c1
residual activity / %: 80

Query: # value lookup — system Tyrosine-protein kinase Fgr (Homo sapiens), readout residual activity, item `COc1cc2ncnc(Nc3ccc(NC(=O)c4ccccc4)cc3)c2cc1OC`
Reply: 71

Query: Report residual activity for `CC(=O)O/N=C1\C(=C2\C(=O)Nc3cc(Br)ccc32)Nc2ccccc21` tested on Tyrosine-protein kinase Fgr (Homo sapiens).
Reply: 10

Query: Kindly state the measured residual activity obtained for `O=C1c2ccccc2-[n+]2ccc3c([nH]c4ccccc43)c21` with Tyrosine-protein kinase Fgr (Homo sapiens).
Reply: 92

Query: Hello, I am looking for reported residual activity with Tyrosine-protein kinase Fgr (Homo sapiens) for `Cc1ccc(NC2=CC(=O)c3sc(C)nc3C2=O)cc1` . Could you help?
Reply: 90

Query: What reported residual activity corresponds to `O=C1NC(=O)/C(=C\c2ccc3nccnc3c2)S1` on Tyrosine-protein kinase Fgr (Homo sapiens)?
Reply: 107

Query: # returns recorded residual activity (system: Tyrosine-protein kinase Fgr (Homo sapiens)) for `CCOc1cc2ncnc(Nc3cccc(Br)c3)c2cc1OCC`
Reply: 54

Query: Recorded residual activity for `CO[C@@H]1[C@H](N(C)C(=O)c2ccccc2)C[C@H]2O[C@]1(C)n1c3ccccc3c3c4c(c5c6ccccc6n2c5c31)C(=O)NC4` with Tyrosine-protein kinase Fgr (Homo sapiens), please?
Reply: 7

Query: Test system Tyrosine-protein kinase Fgr (Homo sapiens); read-out residual activity; what value for `O=C1NC(=O)/C(=C/c2ccc3c(c2)OC(F)(F)O3)S1` ?
Reply: 105

Query: Lab note: need residual activity for `Cc1cc(Nc2nc(-c3ccccc3)nc3ccccc23)n[nH]1` on Tyrosine-protein kinase Fgr (Homo sapiens), anyone have it?
Reply: 18

Query: Please tell me: residual activity of `N#CCCc1ccc2c(c1)-c1[nH]c3ccc([N+](=O)[O-])cc3c1CC(=O)N2` , system Tyrosine-protein kinase Fgr (Homo sapiens)?
Reply: 15

Query: // map `CCN(CC)CCCCN1c2ccccc2Oc2ccc(Cl)cc21` to recorded residual activity (system: Tyrosine-protein kinase Fgr (Homo sapiens))
Reply: 111

Query: Query residual activity on Tyrosine-protein kinase Fgr (Homo sapiens) for `CC(C)n1cnc2c(NCc3ccccc3)nc(NCCCO)nc21`
Reply: 103

Query: Entry `COc1cccc(-c2cc(=O)c3ccccc3o2)c1N` , system Tyrosine-protein kinase Fgr (Homo sapiens): what residual activity was measured?
Reply: 97

Query: Request body: readout residual activity, system Tyrosine-protein kinase Fgr (Homo sapiens), query `Oc1n[nH]c2nnc(-c3c(-c4ccccc4)nn4ccccc34)cc12` . Return the value.
Reply: 89

Query: Enter reported residual activity observed with Tyrosine-protein kinase Fgr (Homo sapiens) for `CNc1cc2c(Nc3cccc(Br)c3)ncnc2cn1`
Reply: 73

Query: What residual activity appears in the records for this molecule with Tyrosine-protein kinase Fgr (Homo sapiens)? `COc1ccc(CNc2nc(N(CCO)CCO)nc3c2ncn3C(C)C)cc1`
Reply: 77

Query: Reported residual activity for Tyrosine-protein kinase Fgr (Homo sapiens), given `O=C1Nc2cc(Br)ccc2/C1=C1/Nc2ccccc2/C1=N\O` ?
Reply: 1

Query: GET /values?readout=residual activity&system=Tyrosine-protein kinase Fgr (Homo sapiens)&item= `COc1cc2ncnc(Nc3ccc(Oc4ccccc4)cc3)c2cc1OC`
Reply: 7

Query: Requested read-out residual activity, target or system Tyrosine-protein kinase Fgr (Homo sapiens), entry `CC(C)n1cnc2/c(=N/c3cccc(Cl)c3)nc(NCCO)[nH]c21`
Reply: 48

Query: Give recorded residual activity with Tyrosine-protein kinase Fgr (Homo sapiens) for the following molecule: `Cc1cncc2cccc(S(=O)(=O)N3CCCN(C(=O)CN)C[C@H]3C)c12`
Reply: 99

Source of measurements: ChEMBL document CHEMBL2218924
